Recorded Ki, one value per entry.
target: human ENPP-1 enzyme (Homo sapiens); construct: purchased R&D Systems; test: ENPP1 Enzyme Assay with cGAMP Substrate (AMP-Glo); type: biochemical
Sequence (P22413 whole entry): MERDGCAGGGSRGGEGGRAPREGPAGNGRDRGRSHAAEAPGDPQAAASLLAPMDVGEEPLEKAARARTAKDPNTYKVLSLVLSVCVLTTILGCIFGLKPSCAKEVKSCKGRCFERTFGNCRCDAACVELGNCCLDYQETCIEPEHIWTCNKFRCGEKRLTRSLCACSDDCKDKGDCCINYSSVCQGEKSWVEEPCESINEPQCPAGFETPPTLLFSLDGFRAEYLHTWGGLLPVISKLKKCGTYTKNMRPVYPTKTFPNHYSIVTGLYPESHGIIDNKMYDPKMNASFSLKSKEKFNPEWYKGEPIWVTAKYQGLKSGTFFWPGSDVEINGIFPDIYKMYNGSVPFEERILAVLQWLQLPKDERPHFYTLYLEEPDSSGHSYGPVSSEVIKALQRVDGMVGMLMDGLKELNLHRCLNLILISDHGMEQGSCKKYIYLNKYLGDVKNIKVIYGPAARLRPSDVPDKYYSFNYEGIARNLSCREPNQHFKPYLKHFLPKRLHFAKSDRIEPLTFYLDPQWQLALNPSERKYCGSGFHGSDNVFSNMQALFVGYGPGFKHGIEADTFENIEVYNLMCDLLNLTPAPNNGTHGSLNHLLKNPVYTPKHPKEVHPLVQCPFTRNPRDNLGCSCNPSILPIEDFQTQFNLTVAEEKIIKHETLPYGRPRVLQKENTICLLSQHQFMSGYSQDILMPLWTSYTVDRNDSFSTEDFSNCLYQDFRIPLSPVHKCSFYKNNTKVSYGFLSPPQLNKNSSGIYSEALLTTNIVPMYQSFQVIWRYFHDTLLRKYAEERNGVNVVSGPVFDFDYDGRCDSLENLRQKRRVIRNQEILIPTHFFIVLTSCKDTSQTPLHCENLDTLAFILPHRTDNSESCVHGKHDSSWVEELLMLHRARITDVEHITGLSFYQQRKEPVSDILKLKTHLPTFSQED

response.value for COc1cc2ncnc(N3CCC4(CC3)CN(S(N)(=O)=O)C4)c2cc1OC (field: Ki) = ≤ 100 nM

response.value for Cn1ncc2c(N3CCC(CCNS(N)(=O)=O)CC3)ncnc21 (field: Ki) = > 1000 nM

response.value for COc1cc2ncnc(NCCc3cccc(NS(N)(=O)=O)c3)c2cc1OC (field: Ki) = 100 to 1000 nM

response.value for COc1cc2ncnc(N3CCc4c(cccc4S(N)(=O)=O)C3)c2cc1OC (field: Ki) = 100 to 1000 nM
